These data points were gathered from patent US11530227B2.

- measured.target: AmpC P. aeruginosa (Pseudomonas aeruginosa, UniProt P24735)
- Construct: made in house; host or cells: E. coli
- Sequence (P24735 27-397): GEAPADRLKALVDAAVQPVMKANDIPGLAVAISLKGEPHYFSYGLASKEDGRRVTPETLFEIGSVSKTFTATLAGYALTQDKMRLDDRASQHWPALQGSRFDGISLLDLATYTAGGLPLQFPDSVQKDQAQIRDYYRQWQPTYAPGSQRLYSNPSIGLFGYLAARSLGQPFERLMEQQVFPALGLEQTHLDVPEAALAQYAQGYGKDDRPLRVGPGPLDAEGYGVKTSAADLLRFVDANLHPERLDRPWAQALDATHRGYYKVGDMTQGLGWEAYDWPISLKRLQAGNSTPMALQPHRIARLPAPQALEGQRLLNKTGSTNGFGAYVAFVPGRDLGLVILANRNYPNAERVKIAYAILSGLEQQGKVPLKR
- method.notes: biochemical
- test.conditions: class (C); nitrocefin 200 μM, 30 min pre-incubation, room temperature; read-out: BLA IC50 AmpC (PAE)
pIC50: −log10 of the molar value.
Decide using pIC50: a value greater than or equal to 6 is y, a smaller one is n.

Exercise: Say whether O=C1N2Cc3c(sc4c3CNCC4)C(C2)N1OS(=O)(=O)O (stereo not drawn) shows pIC50 of 6 or more.
Key: n

Exercise: Say whether O=C1N2Cc3nc4ccccc4cc3C(C2)N1OS(=O)(=O)[O-].[Na+] (stereo not drawn) shows pIC50 of 6 or more.
Key: n

Exercise: Say whether NC(=O)[C@@H]1c2c(sc3ccccc23)[C@@H]2CN1C(=O)N2OS(=O)(=O)[O-].[Na+] (relative stereo) [Example 3, sulfate] shows pIC50 of 6 or more.
Key: y

Exercise: Say whether CCOC(=O)[C@@H]1c2c(n(C)c3ccccc23)[C@@H]2CN1C(=O)N2OS(=O)(=O)[O-].[Na+] (relative stereo) [Example 6, sulfate] shows pIC50 of 6 or more.
Key: y

Exercise: Say whether CCN(CC)C(=O)N1CCc2sc3c(c2C1)CN1CC3N(OS(=O)(=O)O)C1=O (stereo not drawn) shows pIC50 of 6 or more.
Key: y

Exercise: Say whether O=C1N2Cc3nc4cnccc4cc3C(C2)N1OS(=O)(=O)[O-].[Na+] (stereo not drawn) [Example 5, sulfate] shows pIC50 of 6 or more.
Key: n

---

- measured.target: OXA-1 (Escherichia coli, UniProt P13661)
- Construct: made in house; host or cells: E. coli
- method.notes: biochemical
measurement.name: pIC50
Lab note: report pIC50 as minus log10 of the concentration in molar units, number only.

Exercise: Can you look up the measured pIC50 of Cn1c2c(c3scnc31)C1CN(C2)C(=O)N1OS(=O)(=O)O (stereo not shown) [Example 9] for me?
Key: 6.54

---

- measured.target: OXA-11 (Pseudomonas aeruginosa, UniProt Q06778)
- Sequence (Q06778 21-266): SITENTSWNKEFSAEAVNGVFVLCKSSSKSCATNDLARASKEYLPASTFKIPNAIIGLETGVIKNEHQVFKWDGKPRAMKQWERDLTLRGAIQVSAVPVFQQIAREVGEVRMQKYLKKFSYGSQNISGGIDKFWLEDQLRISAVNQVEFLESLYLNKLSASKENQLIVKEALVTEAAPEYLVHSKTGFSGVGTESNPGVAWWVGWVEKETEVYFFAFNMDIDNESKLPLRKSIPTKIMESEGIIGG
- method.notes: biochemical
measurement.name: pIC50
Lab note: report pIC50 as minus log10 of the concentration in molar units, number only.

Exercise: Reported pIC50 for OXA-11 (Pseudomonas aeruginosa, UniProt Q06778), given CCN(CC)C(=O)N1CCc2sc3c(c2C1)CN1CC3N(OS(=O)(=O)O)C1=O (stereo not drawn) [Example 7] ?
Key: 6.96

Exercise: Reported pIC50 for OXA-11 (Pseudomonas aeruginosa, UniProt Q06778), given O=C1N2Cc3nc4ccccc4cc3C(C2)N1OS(=O)(=O)[O-].[Na+] (stereo not drawn) [Example 4] ?
Key: 6.23

Exercise: Reported pIC50 for OXA-11 (Pseudomonas aeruginosa, UniProt Q06778), given O=C1N2Cc3nc4cnccc4cc3C(C2)N1OS(=O)(=O)[O-].[Na+] (stereo not drawn) [Example 5, sulfate] ?
Key: 6.72

Exercise: Reported pIC50 for OXA-11 (Pseudomonas aeruginosa, UniProt Q06778), given O=C1N2Cc3c(sc4c3CNCC4)C(C2)N1OS(=O)(=O)O (stereo not drawn) [Example 8] ?
Key: 6.08

Exercise: Reported pIC50 for OXA-11 (Pseudomonas aeruginosa, UniProt Q06778), given O=C1N2Cc3c(sc4ccccc34)C(C2)N1OS(=O)(=O)[O-].[Na+] (stereo not drawn) [Example 1, sulfate] ?
Key: 7.39

Exercise: Reported pIC50 for OXA-11 (Pseudomonas aeruginosa, UniProt Q06778), given CCOC(=O)[C@@H]1c2c(n(C)c3ccccc23)[C@@H]2CN1C(=O)N2OS(=O)(=O)[O-].[Na+] (relative stereo) [Example 6, sulfate] ?
Key: 6.80

Exercise: Reported pIC50 for OXA-11 (Pseudomonas aeruginosa, UniProt Q06778), given NC(=O)[C@@H]1c2c(sc3ccccc23)[C@@H]2CN1C(=O)N2OS(=O)(=O)[O-].[Na+] (relative stereo) [Example 3, sulfate] ?
Key: 7.51

Exercise: Reported pIC50 for OXA-11 (Pseudomonas aeruginosa, UniProt Q06778), given Cn1c2c(c3scnc31)C1CN(C2)C(=O)N1OS(=O)(=O)O (stereo not drawn) [Example 9] ?
Key: 7.21

Exercise: Reported pIC50 for OXA-11 (Pseudomonas aeruginosa, UniProt Q06778), given CCOC(=O)[C@@H]1c2c(sc3ccccc23)[C@@H]2CN1C(=O)N2OS(=O)(=O)[O-].[Na+] (relative stereo) [Example 2, sulfate] ?
Key: 8.66

---

- measured.target: P99 AmpC (Enterobacter cloacae)
I'd be grateful if you could share measured pIC50 for these entries.
Lab note: report pIC50 as minus log10 of the concentration in molar units, number only.

Exercise: Can you look up the measured pIC50 of O=C1N2Cc3c(sc4c3CNCC4)C(C2)N1OS(=O)(=O)O (centres unmarked) [Example 8] for me?
Key: 5.80

Exercise: Can you look up the measured pIC50 of Cn1c2c(c3scnc31)C1CN(C2)C(=O)N1OS(=O)(=O)O (centres unmarked) [Example 9] for me?
Key: 6.92

Exercise: Can you look up the measured pIC50 of NC(=O)[C@@H]1c2c(sc3ccccc23)[C@@H]2CN1C(=O)N2OS(=O)(=O)[O-].[Na+] (relative stereo) [Example 3, sulfate] for me?
Key: 8.35

Exercise: Can you look up the measured pIC50 of CCOC(=O)[C@@H]1c2c(sc3ccccc23)[C@@H]2CN1C(=O)N2OS(=O)(=O)[O-].[Na+] (relative stereo) [Example 2, sulfate] for me?
Key: 9.29

Exercise: Can you look up the measured pIC50 of O=C1N2Cc3nc4ccccc4cc3C(C2)N1OS(=O)(=O)[O-].[Na+] (centres unmarked) [Example 4] for me?
Key: 6.92

Exercise: Can you look up the measured pIC50 of CCOC(=O)[C@@H]1c2c(n(C)c3ccccc23)[C@@H]2CN1C(=O)N2OS(=O)(=O)[O-].[Na+] (relative stereo) [Example 6, sulfate] for me?
Key: 8.70

Exercise: Can you look up the measured pIC50 of O=C1N2Cc3nc4cnccc4cc3C(C2)N1OS(=O)(=O)[O-].[Na+] (centres unmarked) [Example 5, sulfate] for me?
Key: 7.00

Exercise: Can you look up the measured pIC50 of O=C1N2Cc3c(sc4ccccc34)C(C2)N1OS(=O)(=O)[O-].[Na+] (centres unmarked) [Example 1, sulfate] for me?
Key: 7.77

---

I'd be grateful if you could share measured IC50 for these entries.
- measured.target: OXA-48 (Klebsiella pneumoniae, UniProt Q6XEC0)
- Construct: made in house; host or cells: E. coli
- method.notes: biochemical
- test.conditions: class (D); nitrocefin 200 μM, 30 min pre-incubation, room temperature; read-out: BLA IC50 OXA-48

Exercise: Can you look up the measured IC50 of O=C1N2Cc3nc4ccccc4cc3C(C2)N1OS(=O)(=O)[O-].[Na+] (centres unmarked) for me?
Key: 1.5 nM

Exercise: Can you look up the measured IC50 of O=C1N2Cc3c(sc4ccccc34)C(C2)N1OS(=O)(=O)[O-].[Na+] (centres unmarked) [Example 1, sulfate] for me?
Key: 1.1 nM

Exercise: Can you look up the measured IC50 of CCOC(=O)[C@@H]1c2c(n(C)c3ccccc23)[C@@H]2CN1C(=O)N2OS(=O)(=O)[O-].[Na+] (relative stereo) [Example 6, sulfate] for me?
Key: 4.6 nM

Exercise: Can you look up the measured IC50 of O=C1N2Cc3nc4cnccc4cc3C(C2)N1OS(=O)(=O)[O-].[Na+] (centres unmarked) [Example 5, sulfate] for me?
Key: 1 nM

Exercise: Can you look up the measured IC50 of CCOC(=O)[C@@H]1c2c(sc3ccccc23)[C@@H]2CN1C(=O)N2OS(=O)(=O)[O-].[Na+] (relative stereo) [Example 2, sulfate] for me?
Key: 0.66 nM

Exercise: Can you look up the measured IC50 of CCN(CC)C(=O)N1CCc2sc3c(c2C1)CN1CC3N(OS(=O)(=O)O)C1=O (centres unmarked) for me?
Key: 6.8 nM

Exercise: Can you look up the measured IC50 of NC(=O)[C@@H]1c2c(sc3ccccc23)[C@@H]2CN1C(=O)N2OS(=O)(=O)[O-].[Na+] (relative stereo) [Example 3, sulfate] for me?
Key: 4.8 nM

Exercise: Can you look up the measured IC50 of O=C1N2Cc3c(sc4c3CNCC4)C(C2)N1OS(=O)(=O)O (centres unmarked) for me?
Key: 18 nM

---

- measured.target: OXA-15 (Pseudomonas aeruginosa, UniProt Q51574)
- method.notes: biochemical
Label criterion met when IC50 is strictly below 6 µM; otherwise label criterion not met.

Exercise: Input O=C1N2Cc3nc4ccccc4cc3C(C2)N1OS(=O)(=O)[O-].[Na+] (stereo not drawn) [Example 4] ; condition: IC50 strictly below 6 µM. Does it hold?
Key: criterion not met

Exercise: Input CCN(CC)C(=O)N1CCc2sc3c(c2C1)CN1CC3N(OS(=O)(=O)O)C1=O (stereo not drawn) [Example 7] ; condition: IC50 strictly below 6 µM. Does it hold?
Key: criterion not met

Exercise: Input CCOC(=O)[C@@H]1c2c(n(C)c3ccccc23)[C@@H]2CN1C(=O)N2OS(=O)(=O)[O-].[Na+] (relative stereo) [Example 6, sulfate] ; condition: IC50 strictly below 6 µM. Does it hold?
Key: criterion not met

Exercise: Input Cn1c2c(c3scnc31)C1CN(C2)C(=O)N1OS(=O)(=O)O (stereo not drawn) [Example 9] ; condition: IC50 strictly below 6 µM. Does it hold?
Key: criterion met

Exercise: Input O=C1N2Cc3c(sc4c3CNCC4)C(C2)N1OS(=O)(=O)O (stereo not drawn) [Example 8] ; condition: IC50 strictly below 6 µM. Does it hold?
Key: criterion not met

Exercise: Input CCOC(=O)[C@@H]1c2c(sc3ccccc23)[C@@H]2CN1C(=O)N2OS(=O)(=O)[O-].[Na+] (relative stereo) [Example 2, sulfate] ; condition: IC50 strictly below 6 µM. Does it hold?
Key: criterion met

Exercise: Input NC(=O)[C@@H]1c2c(sc3ccccc23)[C@@H]2CN1C(=O)N2OS(=O)(=O)[O-].[Na+] (relative stereo) [Example 3, sulfate] ; condition: IC50 strictly below 6 µM. Does it hold?
Key: criterion not met

Exercise: Input O=C1N2Cc3c(sc4ccccc34)C(C2)N1OS(=O)(=O)[O-].[Na+] (stereo not drawn) [Example 1, sulfate] ; condition: IC50 strictly below 6 µM. Does it hold?
Key: criterion met

Exercise: Input O=C1N2Cc3nc4cnccc4cc3C(C2)N1OS(=O)(=O)[O-].[Na+] (stereo not drawn) [Example 5, sulfate] ; condition: IC50 strictly below 6 µM. Does it hold?
Key: criterion met
